Ref: patent US20260176265A1

study-target: CtermHisTag-mEGFR Triple Mutant - C797S, L858R, T790M (Homo sapiens, UniProt P00533, C797S/L858R/T790M)
Sequence (P00533 25-1210 T790M/C797S/L858R): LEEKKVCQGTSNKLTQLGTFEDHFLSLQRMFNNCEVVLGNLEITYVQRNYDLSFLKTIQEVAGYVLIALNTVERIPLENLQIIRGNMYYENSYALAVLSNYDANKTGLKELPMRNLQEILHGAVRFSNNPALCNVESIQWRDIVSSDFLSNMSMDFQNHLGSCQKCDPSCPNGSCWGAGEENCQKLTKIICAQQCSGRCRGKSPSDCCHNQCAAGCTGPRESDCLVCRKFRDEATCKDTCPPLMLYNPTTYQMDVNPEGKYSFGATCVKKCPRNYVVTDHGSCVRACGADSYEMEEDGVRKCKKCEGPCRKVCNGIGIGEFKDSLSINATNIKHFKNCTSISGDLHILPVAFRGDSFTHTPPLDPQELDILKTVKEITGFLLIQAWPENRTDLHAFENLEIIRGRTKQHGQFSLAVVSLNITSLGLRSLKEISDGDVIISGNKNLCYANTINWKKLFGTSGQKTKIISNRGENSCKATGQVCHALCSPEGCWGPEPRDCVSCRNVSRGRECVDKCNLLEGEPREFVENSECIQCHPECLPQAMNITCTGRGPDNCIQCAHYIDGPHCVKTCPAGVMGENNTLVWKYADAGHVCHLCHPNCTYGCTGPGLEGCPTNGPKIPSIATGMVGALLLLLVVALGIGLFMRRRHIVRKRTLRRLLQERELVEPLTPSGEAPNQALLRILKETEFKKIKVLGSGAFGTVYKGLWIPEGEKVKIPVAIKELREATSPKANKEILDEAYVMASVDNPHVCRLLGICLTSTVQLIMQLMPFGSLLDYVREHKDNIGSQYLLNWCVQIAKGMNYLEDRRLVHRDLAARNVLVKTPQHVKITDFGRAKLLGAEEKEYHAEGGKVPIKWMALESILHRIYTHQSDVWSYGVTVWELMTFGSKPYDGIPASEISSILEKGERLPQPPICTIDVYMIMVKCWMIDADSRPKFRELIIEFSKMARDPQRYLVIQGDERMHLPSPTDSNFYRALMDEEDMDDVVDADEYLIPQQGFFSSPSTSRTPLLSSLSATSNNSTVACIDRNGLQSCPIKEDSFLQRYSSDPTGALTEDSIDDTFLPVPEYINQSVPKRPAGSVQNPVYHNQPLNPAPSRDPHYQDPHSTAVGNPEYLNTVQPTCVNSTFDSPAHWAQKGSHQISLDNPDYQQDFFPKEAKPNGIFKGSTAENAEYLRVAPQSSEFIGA
method: TR-FRET probe displacement assay, EGFR triple mutant
test-parameters: T790M 1.25 nM, probe 100 nM, 30 mins room temperature

molecule	IC50
C#Cc1cc(NC(=O)NCC2COC2)nc2nc(Nc3ccc(N4CCN(C)CC4)cc3)ncc12	< 20 nM
C#Cc1ccnc2nc(Nc3ccccc3OC)ncc12	100 to 1000 nM
C#Cc1cc(NC(=O)NC2CCCC2)nc2nc(Nc3cccc(CN4CCC(CS(C)(=O)=O)C4)c3)ncc12 (stereo not shown)	20 to 100 nM
C#Cc1cc(N2C(=O)NCC23CCCC3)nc2nc(Nc3ccc(S(=O)(=O)N(C)CCN(C)C)cc3)ncc12	20 to 100 nM
C#Cc1cc(N2C(=O)NC[C@H]2C(C)C)nc2nc(Nc3ccc(N4CCN(C)CC4)cc3)ncc12	100 to 1000 nM
C#Cc1cc(N2CCCC2=O)nc2nc(Nc3ccc(N4CCN(C)CC4)cc3)ncc12	< 20 nM
C#Cc1cc(N2C(=O)NCC23CCCC3)nc2nc(Nc3ccc(N(C)C(C)=O)cc3)ncc12	20 to 100 nM
C#Cc1cc(NC(=O)CCc2ccccc2)nc2nc(Nc3ccc(N4CCN(C)CC4)cc3)ncc12	< 20 nM
C#Cc1cc(N(C)C)nc2nc(Nc3ccc(N(C)CCN(C)C)cc3)ncc12	1000 to 50000 nM
C#Cc1cc(Nc2ccccc2)nc2nc(Nc3ccc(N(C)CCN(C)C)cc3)ncc12	1000 to 50000 nM
C#Cc1cc(NC(=O)NC2CN(C(C)=O)C2)nc2nc(Nc3ccc(N4CCN(C)CC4)cc3)ncc12	< 20 nM
C#Cc1cc(OC)nc2nc(Nc3ccc(N4CCN(C)CC4)c(Nc4ccccc4)c3)ncc12	20 to 100 nM
C#Cc1cc(NC(=O)NC2CC2)nc2nc(Nc3ccc(N4CCN(C)CC4)cc3)ncc12	< 20 nM
C#Cc1cc(NC(=O)NCc2ccnn2C)nc2nc(Nc3ccc(N4CCN(C)CC4)cc3)ncc12	< 20 nM
C#Cc1cc(NC(=O)NCC2CCCC2)nc2nc(Nc3ccc(N4CCN(C)CC4)cc3)ncc12	< 20 nM
C#Cc1cc(NC(=O)NC2CCCC2)nc2nc(Nc3cccc4c3CN(C)C4)ncc12	100 to 1000 nM

====

study-target: Phospho-EGFR (Tyr1068) in H1975 C797S cells (Homo sapiens, UniProt P00533, C797S/L858R/T790M)
Construct: endogenous in cells; host or cells: H1975 C797S (CRISPR-edited in house from ATCC CRL-5908)
Sequence (P00533 25-1210 T790M/C797S/L858R): as above
method: HTRF pEGFR/total EGFR assay in H1975 C797S cells
Assay type: cell-based
test-parameters: H1975 C797S cells (CRISPR), compound 3 hours, ratio pEGFR/total EGFR
Procedure: H1975 C797S cells (ATCC CRL-5908) were genetically engineered by CRISPR editing of EGFR C797S in house and validated by NGS. Cells were plated at 20,000 cells per well in 96 well plates and placed at 37° C. 5% CO2. […] Cells were lysed on a plate shaker (2000 rpm) for 30 minutes at room temperature. pEGFR expression was monitored using the Cisbio Phospho-EGFR (Tyr1068) cellular kit (64EG1PEH). […] Fluorescence emission was read at two different wavelengths (665 nm and 620 nm) on a PheraStar. […]
pIC50: −log10 of the molar value.

compound	pIC50
C#Cc1cc(OCc2cscn2)nc2nc(Nc3ccc(N4CCN(C)CC4)cc3)ncc12 [Example 13]	< 5.52
C#Cc1cc(N2C(=O)NCC23CCCC3)nc2nc(Nc3ccc(S(=O)(=O)N(C)CCN(C)C)cc3)ncc12 [Example 98]	< 5.52
C#Cc1cc(OC)nc2nc(Nc3ccc(N4CCN(C)CC4)c(NCC4CCC4)c3)ncc12 [Example 10]	< 5.52
C#Cc1cc(N2CCCC2=O)nc2nc(Nc3ccc(N4CCN(C)CC4)cc3)ncc12 [Example 31]	5.52 to 6.00
C#Cc1cc(NC(=O)NC2CCCC2)nc2nc(Nc3ccc(OC4CN(C)C4)cc3)ncc12 [Example 80]	> 6.30
C#Cc1cc(OC)nc2nc(Nc3ccc(N4CCN(C)CC4)cc3)ncc12 [Example 3]	5.52 to 6.00
C#Cc1cc(N2C(=O)NCC23CCCC3)nc2nc(Nc3ccc(N4CCOCC4)cc3)ncc12 [Example 91]	5.52 to 6.00
C#Cc1cc(NC(=O)NCC2CCOC2)nc2nc(Nc3ccc(N4CCN(C)CC4)cc3)ncc12 (stereo not shown) [Example 51]	> 6.30
C#Cc1cc(NC(=O)NC2CCCC2)nc2nc(Nc3cccc(CN4CCC(CS(C)(=O)=O)CC4)c3)ncc12 [Example 87]	> 6.30
C#Cc1cc(N2C(=O)NCC23CCCC3)nc2nc(Nc3ccc(S(=O)(=O)N(C)C)cc3)ncc12 [Example 97]	< 5.52
C#Cc1cc(N2C(=O)OCC2C2CCCC2)nc2nc(Nc3ccc(N4CCN(C)CC4)cc3)ncc12 (stereo not shown) [Example 111]	6.00 to 6.30
C#Cc1cc(OC)nc2nc(Nc3ccc(N(C)CCN(C)C)cc3)ncc12 [Example 2]	< 5.52
C#Cc1cc(NC(=O)CCc2ccccc2)nc2nc(Nc3ccc(N4CCN(C)CC4)cc3)ncc12 [Example 32]	5.52 to 6.00
C#Cc1cc(NC(=O)NC2(C)COC2)nc2nc(Nc3ccc(N4CCN(C)CC4)cc3)ncc12 [Example 61]	> 6.30
C#Cc1cc(NC(=O)NC2CN(S(C)(=O)=O)C2)nc2nc(Nc3ccc(N4CCN(C)CC4)cc3)ncc12 [Example 57]	< 5.52
C#Cc1cc(NC(=O)NC2CCCC2)nc2nc(Nc3ccc(N4CCN(C)CC4)cc3)ncc12 [Example 38]	> 6.30
